These entries and their values trace back to patent US8822460B2.

ASSAY_PROTOCOL: Solution solubility
CONDITION_PARAMETERS: borate buffer, pH 10, aqueous buffer, thermodynamic from solid
MEASUREMENT_TYPE: solubility

Briefly, solubility measured for CO[C@@H]1COCC[C@@H]1N[C@@H]1C[C@H]2OCC[C@@]2(C(=O)N2CCc3ncc(C(F)(F)F)cc3C2)C1.O=C(O)CCC(=O)O : > 100 mg/mL

* * *

ASSAY_PROTOCOL: Solution solubility
CONDITION_PARAMETERS: borate buffer, pH 8, aqueous buffer, thermodynamic from solid
MEASUREMENT_TYPE: solubility

Briefly, solubility measured for CO[C@@H]1COCC[C@@H]1N[C@@H]1C[C@H]2OCC[C@@]2(C(=O)N2CCc3ncc(C(F)(F)F)cc3C2)C1.O=C(O)CCC(=O)O : > 100 mg/mL

* * *

ASSAY_PROTOCOL: Solution solubility
CONDITION_PARAMETERS: citrate buffer, pH 2, aqueous buffer, thermodynamic from solid
MEASUREMENT_TYPE: solubility

Briefly, solubility measured for CO[C@@H]1COCC[C@@H]1N[C@@H]1C[C@H]2OCC[C@@]2(C(=O)N2CCc3ncc(C(F)(F)F)cc3C2)C1.O=C(O)CCC(=O)O : > 100 mg/mL

* * *

ASSAY_PROTOCOL: Solution solubility
CONDITION_PARAMETERS: 0.5% methocel, aqueous with cosolvent or surfactant or cyclodextrin, thermodynamic from solid
MEASUREMENT_TYPE: solubility

Briefly, solubility measured for CO[C@@H]1COCC[C@@H]1N[C@@H]1C[C@H]2OCC[C@@]2(C(=O)N2CCc3ncc(C(F)(F)F)cc3C2)C1.O=C(O)CCC(=O)O : > 100 mg/mL

* * *

ASSAY_PROTOCOL: Moisture sorption/desorption analysis
Format: physicochemical
CONDITION_PARAMETERS: up to 90% RH
Protocol: The crystalline phosphate, sulfate and maleate salts of the compound of formula (I-S) were additional tested in DSC, TGA and moisture sorption/desorption. […] The moisture sorption analysis was performed using Hiden Isochema system Model IGAsorp. The sample (˜5 mg) was run in a stainless-steel mesh crucible. […] The moisture profile consisted of 2 cycles of vapor adsorption/desorption.
Counter-ions that a name gives are not always drawn.
MEASUREMENT_TYPE: total hygroscopic weight increase (uptake) (%)
Answers are plain numbers, in %.

> print(dat)
                                   compound  numeric.readout
1  CO[C@@H]1COCC[C@@H]1N[C@@H]1C[C@H]2OCC[C@@]2(C(=O)N2CCc3ncc(C(F)(F)F)cc3C2)C1 [sulfate salt]             26.5
2  CO[C@@H]1COCC[C@@H]1N[C@@H]1C[C@H]2OCC[C@@]2(C(=O)N2CCc3ncc(C(F)(F)F)cc3C2)C1 [phosphate salt]             69.4
3  CO[C@@H]1COCC[C@@H]1N[C@@H]1C[C@H]2OCC[C@@]2(C(=O)N2CCc3ncc(C(F)(F)F)cc3C2)C1.O=C(O)CCC(=O)O               70

API: the following record is the query input.
Briefly, total hygroscopic weight increase (uptake) measured for CO[C@@H]1COCC[C@@H]1N[C@@H]1C[C@H]2OCC[C@@]2(C(=O)N2CCc3ncc(C(F)(F)F)cc3C2)C1 [maleate salt] : 79.9

* * *

ASSAY_PROTOCOL: Solution solubility
CONDITION_PARAMETERS: simulated intestinal fluid, fassgf or other biorelevant, thermodynamic from solid
MEASUREMENT_TYPE: solubility

Briefly, solubility measured for CO[C@@H]1COCC[C@@H]1N[C@@H]1C[C@H]2OCC[C@@]2(C(=O)N2CCc3ncc(C(F)(F)F)cc3C2)C1.O=C(O)CCC(=O)O : > 100 mg/mL

* * *

Tested on: hCCR2KI mice
ASSAY_PROTOCOL: animal or person
Type: in vivo, mouse
CONDITION_PARAMETERS: Mus musculus, 0.5 h, read-out: cmax EC50 in plasma
MEASUREMENT_TYPE: EC50

Briefly, EC50 measured for CO[C@@H]1COCC[C@@H]1N[C@@H]1C[C@H]2OCC[C@@]2(C(=O)N2CCc3ncc(C(F)(F)F)cc3C2)C1.O=C(O)CCC(=O)O [Example 30, succinate] : 97 nM

* * *

Kindly state pIC50 for each of the entries shown.
EXPERIMENTAL_SYSTEM: CCR2 (Homo sapiens (Human))
Sequence (P41597 whole entry): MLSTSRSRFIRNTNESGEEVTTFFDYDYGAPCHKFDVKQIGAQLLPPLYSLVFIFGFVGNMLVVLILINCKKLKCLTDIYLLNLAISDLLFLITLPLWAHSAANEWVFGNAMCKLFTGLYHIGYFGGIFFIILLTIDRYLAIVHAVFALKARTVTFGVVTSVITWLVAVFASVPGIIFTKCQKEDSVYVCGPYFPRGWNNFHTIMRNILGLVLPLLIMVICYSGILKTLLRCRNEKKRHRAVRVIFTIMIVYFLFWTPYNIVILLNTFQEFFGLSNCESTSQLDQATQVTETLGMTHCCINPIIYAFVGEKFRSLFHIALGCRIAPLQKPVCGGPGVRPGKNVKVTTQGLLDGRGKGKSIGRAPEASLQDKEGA
ASSAY_PROTOCOL: MCP-1 Receptor Binding Assay in THP-1 Cells
CONDITION_PARAMETERS: stated as 'believed to have', approximate ('about')
pIC50: −log10 of the molar value.

// below: answered molecules
> print(dat)
                                   molecule          experimental.system        result
1  COC1COCCC1N[C@@H]1C[C@H]2OC(c3ccnn3C)C[C@@]2(C(=O)N2CCc3ncc(C(F)(F)F)cc3C2)C1 (some centres unmarked) [Example 17]  CCR2 (Homo sapiens (Human))  6.70 to 7.00
2  CO[C@@H]1COCC[C@@H]1N[C@@H]1C[C@H]2OCC[C@@]2(C(=O)N2CCN(c3ccnc(C(F)(F)F)n3)CC2)C1 [Example 28]  CCR2 (Homo sapiens (Human))        < 6.70
3  O=C(N1COc2ccc(C(F)(F)F)cc2C1)[C@@]12CCO[C@@H]1C[C@@H](N1CCC(c3ccccc3)CC1)C2 [Example 38]  CCR2 (Homo sapiens (Human))  6.70 to 7.00
4  COC1COCCC1N[C@@H]1C[C@H]2OC(CC(C)C)C[C@@]2(C(=O)N2CCc3ncc(C(F)(F)F)cc3C2)C1 (some centres unmarked) [Example 14]  CCR2 (Homo sapiens (Human))  7.00 to 7.30
5  COC1COCCC1N[C@@H]1C[C@H]2OC(c3nccn3C)C[C@@]2(C(=O)N2CCc3ncc(C(F)(F)F)cc3C2)C1 (some centres unmarked) [Example 18]  CCR2 (Homo sapiens (Human))        < 6.70

Kindly give each listed record's pIC50.
1. CO[C@@H]1COCC[C@@H]1N[C@@H]1C[C@H]2OCC[C@@]2(C(=O)N2CCN(c3cccc(C(F)(F)F)n3)CC2)C1 [Example 24]
2. COc1cccc(C2CCN([C@@H]3C[C@H]4OCC[C@@]4(C(=O)N4CCc5ncc(C(F)(F)F)cc5C4)C3)CC2)c1 [Example 33]

1. < 6.70
2. > 7.30

Kindly give each listed record's pIC50.
1. COCCN([C@@H]1C[C@H]2OCC[C@@]2(C(=O)N2CCc3ncc(C(F)(F)F)cc3C2)C1)[C@H]1CCOC[C@H]1OC [Example 41]
2. COC1COCCC1N[C@@H]1C[C@H]2OC(C3CCCCC3)C[C@@]2(C(=O)N2CCc3ncc(C(F)(F)F)cc3C2)C1 (some centres unmarked) [Example 15]
3. COCCOCCOCCOCCCN([C@@H]1C[C@H]2OCC[C@@]2(C(=O)N2CCc3ncc(C(F)(F)F)cc3C2)C1)[C@H]1CCOC[C@H]1OC [Example 42]
4. CN(C)C(=O)c1cccc(C2CCN([C@@H]3C[C@H]4OCC[C@@]4(C(=O)N4COc5ccc(C(F)(F)F)cc5C4)C3)CC2)c1 [Example 39]

["< 6.70", "> 7.30", "< 6.70", "> 7.30"]

* * *

ASSAY_PROTOCOL: Solution solubility
CONDITION_PARAMETERS: 20% HpbCD, aqueous with cosolvent or surfactant or cyclodextrin, thermodynamic from solid
MEASUREMENT_TYPE: solubility

Briefly, solubility measured for CO[C@@H]1COCC[C@@H]1N[C@@H]1C[C@H]2OCC[C@@]2(C(=O)N2CCc3ncc(C(F)(F)F)cc3C2)C1.O=C(O)CCC(=O)O : > 100 mg/mL

* * *

ASSAY_PROTOCOL: Solution solubility
CONDITION_PARAMETERS: 0.1N NaOH, aqueous buffer, thermodynamic from solid
MEASUREMENT_TYPE: solubility

Briefly, solubility measured for CO[C@@H]1COCC[C@@H]1N[C@@H]1C[C@H]2OCC[C@@]2(C(=O)N2CCc3ncc(C(F)(F)F)cc3C2)C1.O=C(O)CCC(=O)O : > 100 mg/mL

* * *

ASSAY_PROTOCOL: Solution solubility
CONDITION_PARAMETERS: citrate buffer, pH 4, aqueous buffer, thermodynamic from solid
MEASUREMENT_TYPE: solubility

Briefly, solubility measured for CO[C@@H]1COCC[C@@H]1N[C@@H]1C[C@H]2OCC[C@@]2(C(=O)N2CCc3ncc(C(F)(F)F)cc3C2)C1.O=C(O)CCC(=O)O : > 100 mg/mL
